Reference for the values: PubChem BioAssay AID2060507

Tested on: 519858-162-T-J1-PDC complex spheroid viability;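 note: spheroids exposed to compounds for 7 days; 100% = DMSO vehicle control viability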
assay details: Anticancer human tumor 519858-162-T-J1-PDC patient-derived colon adenocarcinoma cell line growth inhibition [GQUAD]
reported conditions: second compound 3.16 µM; first compound 0.1 µM; hits give low values
Measured viability, T/C by item
readout type: viability, T/C

molecule | endpoint value
C#Cc1c(F)ccc2cc(O)cc(-c3ncc4c(N5CC6CCC(C5)N6)nc(OCC56CCCN5CC(F)C6)nc4c3F)c12 (stereo not given) + Cc1cnc(CNC(=O)c2c(=O)c3ccc(N4CCCN(C)CC4)nc3n3c2sc2ccccc23)cn1 | 63.5%
CC(C)n1c(=O)n(C)c2cnc3cc(F)c(-c4ccc(OCCCN5CCCCC5)nc4)cc3c21 + Cc1[nH]c2ccc(F)cc2c1-c1nc2c3cccnc3c3ncccc3c2[nH]1 | 75.6%
C=CC(=O)N1CCN(c2nc(=O)n(-c3c(C)ccnc3C(C)C)c3nc(-c4c(O)cccc4F)c(F)cc23)C(C)C1 (stereo not given) + Cc1cnc(CNC(=O)c2c(=O)c3ccc(N4CCCN(C)CC4)nc3n3c2sc2ccccc23)cn1 | 49.6%
CCCS(=O)(=O)Nc1ccc(F)c(C(=O)c2c[nH]c3ncc(-c4ccc(Cl)cc4)cc23)c1F + Cc1[nH]c2ccc(F)cc2c1-c1nc2c3cccnc3c3ncccc3c2[nH]1 | 51.3%
CC1COCCN1c1cc(C2(S(C)(=N)=O)CC2)nc(-c2ccnc3[nH]ccc23)n1 (stereo not given) + Cc1cnc(CNC(=O)c2c(=O)c3ccc(N4CCCN(C)CC4)nc3n3c2sc2ccccc23)cn1 | 39%
